Cited source for all entries: PubChem BioAssay (NCI)

# Test system: SW-620 colon
# Method Description: NCI tumour cell line growth inhibition, 48 h
Recorded TGI values for a group of compounds are listed next.

Examples with their reported TGI follow.
get_value(item= O=C(Nc1nnc(-c2ccccc2)o1)C(SC(=S)N1CCCCC1)c1ccccc1 (stereo not drawn) , readout=TGI) returns > 100 µM

Entry under test: Nc1ccc2c(c1)C(=O)C(=O)c1c-2nc2ccccn12 . Its TGI was 3.83 µM

Just so you know, measured TGI for O=C(/C=C1\N=C(c2ccccc2)N(c2nc3ccc(Sc4ccccc4)cc3[nH]2)C1=O)/C=C/c1ccccc1 came out at > 100 µM

Value of TGI reported for the compound Nc1c(C(=O)c2cccc(CCCN3CCOCC3)c2)cnn1-c1ccc(F)cc1 is > 25 µM

---
Consider COc1ccc(C2=CC(c3ccccc3)n3nnnc3N2)cc1 (stereo not drawn) . Its measured TGI is > 100 µM

###

Measured TGI accompanies every entry in the list below.
# System: 786-0 renal
# Method Description: NCI tumour cell line growth inhibition, 48 h
Value expressed in µM; do not type the unit.

// solved cases for TGI follow
Memo: COc1cc(C(=O)/C=C/c2c(C)n([O-])c3ccc(C)cc3[n+]2=O)cc(OC)c1OC , reported TGI: 21.7

Reported TGI for COc1ccc2[nH]c(=O)c3c4ccccc4cn3c2c1 was 1.95

Continuing:
Noted for CC(C)/C=C1\CCC(CN2CCCC2)C1=O (configuration not stated) : its TGI reads 4.8

Please fill in: TGI reported for COc1cc2c3c(n(CCCN)c(=O)c2cc1OC)-c1ccccc1C3=O = 2.02

The compound C/C(=N\NC(=O)c1sc(=S)n(C)c1N)c1cc2ccccc2o1 showed TGI equal to 29.8

###

# Test system: SF-295 CNS
# Method Description: NCI tumour cell line growth inhibition, 48 h
Readout: TGI (µM)
Just the number please, in µM, no unit attached.

The compound listed as CCOc1ccc2nc(-c3ccc(O)cc3)sc2c1 has a reported TGI of 61.6

***
Recorded TGI (compound CN1N=CSC12C(=O)N(c1ccc(Cl)cc1)C(=O)N2c1ccc(Cl)cc1 (stereo not given) ): 9.16

###

# Tested on: SW-620 colon
# Method Description: NCI tumour cell line growth inhibition, 48 h
Readout: TGI

The reported TGI of the molecule O=C(NC1CCN(Cc2ccccc2)CC1)c1cc(-c2ccncc2)nc2ccc(Cl)cc12 was > 100 µM

Others:
Kindly note the recorded TGI for COC(=O)[C@@]12C(=O)C=CC(=O)[C@@H]1C1C(=CC2COC(C)=O)O[C@@H]2OC3(CCCCC3)O[C@H]12 (some centres not stated) , which is 12.1 µM

TGI measured on CCOC(=O)CN1C(=O)c2c(c(C)n(-c3ccccc3)c2C)C1=O = > 100 µM

###

Below, each entry is listed with its recorded TGI.
# System: NCI-H522 lung
# Method Description: NCI tumour cell line growth inhibition, 48 h

Lab note: compound COc1ccc(C2CC(c3cc(OC)c(OC)c(OC)c3)=NO2)cc1OCCCCOc1cc2c(cc1OC)C(=O)N1CCC[C@H]1C=N2 (stereo not given in full) tested on NCI-H522 lung; recorded TGI was 2.28 µM

Tested system NCI-H522 lung; TGI recorded for COC(=O)CCc1cc(OC)c(O)c(C(Cc2ccc(OC)c(OC)c2)C(=O)OC)c1 (stereo not given) was > 100 µM

Entry Cc1ccc2c3c1O[C@H]1c4[nH]c5ccccc5c4C[C@@]4(O)[C@@H](C2)N(C)CC[C@]314 , tested on NCI-H522 lung, has a reported TGI of 36 µM

Response field TGI (NCI-H522 lung) for item COc1ccccc1NC(=O)c1sc2nc3c(cc2c1N)C(=O)CCC3 : 38.7 µM

# ---- query compound ----
Observed TGI on NCI-H522 lung, entry CCOC(=O)c1ccc(Nc2cnc3cc(C(F)(F)F)ccc3n2)cc1 , equals > 100 µM

###

# Tested on: HCC-2998 colon
# Method Description: NCI tumour cell line growth inhibition, 48 h
Readout: TGI

In the examples that follow, each entry is paired with its recorded TGI.
Case O=C(Nn1c(-c2ccccc2)nc2ccccc2c1=O)c1ccc(CS)cc1 , HCC-2998 colon, TGI recorded as > 100 µM

HCC-2998 colon assay, compound CC(C)(C)c1cc(C(=O)Nc2cc(Br)c(Br)cc2S(N)(=O)=O)cc(C(C)(C)C)c1O , recorded TGI = 18.1 µM

For the compound COc1cccc(C2c3cc4c(cc3OC(C)(N3CCCC3)C2C)OCO4)c1OC (stereo not drawn) , the measured TGI on HCC-2998 colon was 53.2 µM

Field TGI (HCC-2998 colon), entry NNC(=O)CSc1nc2ccc(I)cc2c(=O)n1Cc1ccccc1 : 55.6 µM

---
Short answer on HCC-2998 colon for CC1(C)CCC[C@@]2(C)C1CCC1(C)C(CCc3ccoc3)/C(=C/OS(=O)(=O)O)CCC12 (stereo partly drawn) (tested in a mixture with another compound) , TGI: > 100 µM

GET /values?item= NC(Cc1ccc(S(=O)(=O)O)cc1)C(=O)NC(CCCCNC(=O)NCCCCC(NC(=O)C(N)Cc1ccc(S(=O)(=O)O)cc1)C(=O)NC(Cc1ccc(S(=O)(=O)O)cc1)C(=O)O)C(=O)NC(Cc1ccc(S(=O)(=O)O)cc1)C(=O)O (stereo not drawn) &system= HCC-2998 colon returns TGI: > 100 µM

I looked up CCNC(=O)[C@@H]1CCCN2C(=O)CC[C@H](NC(=O)[C@H](Cc3ccc(OP(=O)(O)O)cc3)NC(C)=O)C(=O)N12 and its TGI for HCC-2998 colon was > 25 µM

Short answer on HCC-2998 colon for N#Cc1ccccc1NC(=O)/C(=N\N)C(C(=O)c1ccncc1)C1OC(=O)c2ccccc21 (stereo not drawn) , TGI: > 100 µM

Field TGI (HCC-2998 colon), entry CN(C)c1ccc2c(=O)c3ccccc3oc2n1 : > 100 µM

Simply: CCOc1ccccc1NC(=O)CC1C(=O)Nc2ccccc2S1=O (stereo not drawn) , HCC-2998 colon, TGI = > 100 µM

Result for Cc1c(N2CCCC2)cc2c(c1NC(=O)c1ccccc1Cl)C(C)(C)CC2(C)C , tested on HCC-2998 colon, TGI: 25.9 µM

HCC-2998 colon assay, compound CCCCCC(C)(C)CCC(=O)OC1OC(COC2OC(COC3OC(CO)C(O)C(O)C3O)C(O)C(O)C2O)C(O)C(O)C1O (stereo not drawn) , recorded TGI = > 100 µM

Entry COC(=O)[C@@]12C(=O)C=CC(=O)[C@@H]1C1C(=CC2COC(C)=O)O[C@@H]2OC3(CCCCC3)O[C@H]12 (stereo partly drawn) : TGI on HCC-2998 colon = 30.4 µM

Observed TGI, HCC-2998 colon, COc1ccccc1/C=C(\C#N)c1ccccc1 : > 100 µM

TGI on HCC-2998 colon for CC1(C)N=C(N)N=C(N)N1c1cccc(CCCCc2cccc(S(=O)(=O)F)c2)c1 is > 56.3 µM

Value sought: TGI, system HCC-2998 colon, item Fc1ccc2[nH]cc(-c3nc(-c4c[nH]c5ncccc45)cs3)c2c1 . Result: > 100 µM

Param item: O=C1OC(c2ccccc2)=N/C1=C\c1cccnc1 ; param system: HCC-2998 colon; output TGI: > 100 µM

// TGI (HCC-2998 colon) for Cc1c(C#N)c2nnn(-c3ccc(Cl)cc3)c(=O)n2c1-c1ccccc1 = 0.201 µM

###

# System: A549 NSCLC
# Method Description: NCI tumour cell line growth inhibition, 48 h
Readout: TGI

Worked cases, answers included:
So, Nc1sc2c(c1C(=O)c1ccc(Cl)c(Cl)c1)CCCC2 ? Its TGI was > 100 µM

For record CC[C@]12CCCN3CCc4c(n(c5ccccc45)C(=O)C1)[C@@H]32 the listed TGI is > 100 µM

// TGI lookup, compound = CC1(C)CC(=O)C(CCC(=O)/C=C/c2ccccc2)C(=O)C1 , result: > 100 µM

Lab note: measured TGI of O=C1[C@@H]2C(c3ccccc3Br)=NO[C@@H]2C(=O)N1c1ccc(Cc2ccc(N3C(=O)[C@H]4C(c5ccccc5Br)=NO[C@H]4C3=O)cc2)cc1 was > 100 µM

Query COc1cc(-c2cn(S(=O)(=O)c3ccc(C)cc3)c3ccccc23)nc(-c2cn(S(=O)(=O)c3ccc(C)cc3)c3ccccc23)n1 yields TGI of > 48.8 µM

Others:
Entry ClCCCN(CCCCl)c1ccc(C=Nc2cccc(Cl)c2)cc1 — recorded TGI = > 79.7 µM

Field TGI (entry O=C(Nc1cccc(-n2ccc3c(NC(=O)c4ccccc4)nccc32)c1)c1ccc(N2CCOCC2)c(C(F)(F)F)c1 ) reads > 100 µM

Recorded TGI (compound OCC1OC(n2nc(-c3ccccc3)nc2-c2cnccn2)C(O)C(O)C1O (centres undefined) ): > 100 µM

Record Nc1ccc2c(c1)C(=O)C(=O)c1c-2nc2ccccn12 . Reported TGI: 3.54 µM
